molecular target: Protein phosphatase 1D (Homo sapiens); assay: RapidFire Mass Spectrometry qHTS Assay for Modulators of WT P53-Induced Phosphatase 1 (WIP1) (AID 1347424); conditions: WIP1 dephosphorylation of phosphopeptide, RapidFire MS; series mostly up to 63 µM;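 also: amount of dephosphorylated VEPPL-S-QETFS peptide product formed by WIP1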
Inconclusive results are not listed. Activity calls are given as the source filed them. Calls follow the shape of the dose curve; as a rule, active = well fitted inhibition curve with a large enough effect; inconclusive = small, poorly fitted or top-dose-only effect; inactive = no such curve, though single readings can be large or run the other way.
Thanks in advance; please answer with one of these: y = active, n = inactive

input: Assay result, entry "CCOC(=O)COc1ccc2c(C)c(CCN(CC)CC)c(=O)oc2c1Cl" — outcome?
output: n

----------
test system: WaGa; assay: qHTS assay to identify novel small-molecules to repurpose for Merkel cell carcinoma treatment (AID 1296009); settings: MCC and control cell lines, CellTiter-Glo viability, 72 h; series mostly up to 46 µM; also: nearly all actives have a fitted effect of over 60% in size
Records with an inconclusive call do not appear. Calls of active or inactive are those of the source. Calls come from the whole dose curve; as a rule, active = well fitted inhibition curve with a large enough effect; inconclusive = small, poorly fitted or top-dose-only effect; inactive = flat fitted curve, though single readings scatter.
Thanks in advance; please answer with one of these: true (active), false (inactive)

input: Assay result, entry "CCN1CCC[C@H]1CNC(=O)c1c(OC)ccc(Br)c1OC" — outcome?
output: false
